- subject of test: jack bean urease (Canavalia ensiformis, UniProt P07374)
- Sequence (P07374 whole entry, looked up): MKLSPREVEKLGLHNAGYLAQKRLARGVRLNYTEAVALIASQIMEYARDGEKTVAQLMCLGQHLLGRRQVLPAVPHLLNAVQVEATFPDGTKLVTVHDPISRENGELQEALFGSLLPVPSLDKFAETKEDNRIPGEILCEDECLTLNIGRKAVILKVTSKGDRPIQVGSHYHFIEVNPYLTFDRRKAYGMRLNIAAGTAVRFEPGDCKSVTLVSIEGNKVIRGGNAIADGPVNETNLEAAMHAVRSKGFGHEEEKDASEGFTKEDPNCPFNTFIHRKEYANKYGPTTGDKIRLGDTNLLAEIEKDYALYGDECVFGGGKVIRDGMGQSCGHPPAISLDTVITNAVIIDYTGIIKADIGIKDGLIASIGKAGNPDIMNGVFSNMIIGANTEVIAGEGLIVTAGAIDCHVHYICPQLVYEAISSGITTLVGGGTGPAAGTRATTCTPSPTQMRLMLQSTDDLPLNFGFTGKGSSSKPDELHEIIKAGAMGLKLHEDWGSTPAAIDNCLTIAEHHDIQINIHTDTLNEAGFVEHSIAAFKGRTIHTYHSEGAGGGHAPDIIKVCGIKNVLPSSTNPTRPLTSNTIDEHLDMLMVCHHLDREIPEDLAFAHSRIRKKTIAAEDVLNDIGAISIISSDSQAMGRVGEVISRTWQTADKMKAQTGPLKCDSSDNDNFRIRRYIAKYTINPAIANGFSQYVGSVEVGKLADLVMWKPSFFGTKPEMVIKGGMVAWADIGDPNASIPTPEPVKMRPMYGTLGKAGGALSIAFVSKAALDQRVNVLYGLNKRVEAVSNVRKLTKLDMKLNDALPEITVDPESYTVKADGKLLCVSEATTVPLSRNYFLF
- assay summary: biochemical
quantity kind: IC50 (µM)

| structure smiles string | subject of test | reading |
| --- | --- | --- |
| Cc1cccc(S(=O)(=O)Nc2nnc(-c3ccc(C(c4c[nH]c5ccc(Br)cc45)c4c[nH]c5ccc(Br)cc45)cc3)s2)c1 | jack bean urease (Canavalia ensiformis, UniProt P07374) | 28.6 |
| O=S(=O)(Nc1nnc(-c2ccc(C(c3c[nH]c4ccc(Br)cc34)c3c[nH]c4ccc(Br)cc34)cc2)s1)c1ccc(Cl)cc1Cl | jack bean urease (Canavalia ensiformis, UniProt P07374) | 2.3 |
| O=[N+]([O-])c1ccc(S(=O)(=O)Nc2nnc(-c3ccc(C(c4c[nH]c5ccc(Br)cc45)c4c[nH]c5ccc(Br)cc45)cc3)s2)c([N+](=O)[O-])c1 | jack bean urease (Canavalia ensiformis, UniProt P07374) | 0.5 |
| COc1ccc([N+](=O)[O-])c(S(=O)(=O)Nc2nnc(-c3ccc(C(c4c[nH]c5ccc(Br)cc45)c4c[nH]c5ccc(Br)cc45)cc3)s2)c1 | jack bean urease (Canavalia ensiformis, UniProt P07374) | 3.9 |
| Cc1ccc([N+](=O)[O-])c(S(=O)(=O)Nc2nnc(-c3ccc(C(c4c[nH]c5ccc(Br)cc45)c4c[nH]c5ccc(Br)cc45)cc3)s2)c1 | jack bean urease (Canavalia ensiformis, UniProt P07374) | 5.1 |
| Cc1ccccc1S(=O)(=O)Nc1nnc(-c2ccc(C(c3c[nH]c4ccc(Br)cc34)c3c[nH]c4ccc(Br)cc34)cc2)s1 | jack bean urease (Canavalia ensiformis, UniProt P07374) | 23.8 |
| O=[N+]([O-])c1ccccc1S(=O)(=O)Nc1nnc(-c2ccc(C(c3c[nH]c4ccc(Br)cc34)c3c[nH]c4ccc(Br)cc34)cc2)s1 | jack bean urease (Canavalia ensiformis, UniProt P07374) | 1.1 |
| O=[N+]([O-])c1ccc(S(=O)(=O)Nc2nnc(-c3ccc(C(c4c[nH]c5ccc(Br)cc45)c4c[nH]c5ccc(Br)cc45)cc3)s2)cc1 | jack bean urease (Canavalia ensiformis, UniProt P07374) | 1.8 |
| O=S(=O)(Nc1nnc(-c2ccc(C(c3c[nH]c4ccc(Br)cc34)c3c[nH]c4ccc(Br)cc34)cc2)s1)c1cc(Cl)c(Cl)cc1Cl | jack bean urease (Canavalia ensiformis, UniProt P07374) | 0.7 |
| O=S(=O)(Nc1nnc(-c2ccc(C(c3c[nH]c4ccc(Br)cc34)c3c[nH]c4ccc(Br)cc34)cc2)s1)c1ccc(Cl)c(Cl)c1 | jack bean urease (Canavalia ensiformis, UniProt P07374) | 1.6 |
| COc1ccc(O)c(S(=O)(=O)Nc2nnc(-c3ccc(C(c4c[nH]c5ccc(Br)cc45)c4c[nH]c5ccc(Br)cc45)cc3)s2)c1 | jack bean urease (Canavalia ensiformis, UniProt P07374) | 2.2 |
| Cc1ccc(S(=O)(=O)Nc2nnc(-c3ccc(C(c4c[nH]c5ccc(Br)cc45)c4c[nH]c5ccc(Br)cc45)cc3)s2)cc1 | jack bean urease (Canavalia ensiformis, UniProt P07374) | 20.4 |
| O=S(=O)(Nc1nnc(-c2ccc(C(c3c[nH]c4ccc(Br)cc34)c3c[nH]c4ccc(Br)cc34)cc2)s1)c1ccc2ccccc2c1 | jack bean urease (Canavalia ensiformis, UniProt P07374) | 33.2 |
| O=[N+]([O-])c1ccc(S(=O)(=O)Nc2nnc(-c3ccc(C(c4c[nH]c5ccc(Br)cc45)c4c[nH]c5ccc(Br)cc45)cc3)s2)cc1Cl | jack bean urease (Canavalia ensiformis, UniProt P07374) | 1.1 |
| Cc1ccc(Cl)c(S(=O)(=O)Nc2nnc(-c3ccc(C(c4c[nH]c5ccc(Br)cc45)c4c[nH]c5ccc(Br)cc45)cc3)s2)c1 | jack bean urease (Canavalia ensiformis, UniProt P07374) | 8.5 |
| O=S(=O)(Nc1nnc(-c2ccc(C(c3c[nH]c4ccc(Br)cc34)c3c[nH]c4ccc(Br)cc34)cc2)s1)c1ccccc1 | jack bean urease (Canavalia ensiformis, UniProt P07374) | 13.2 |
| COc1ccc(Br)c(S(=O)(=O)Nc2nnc(-c3ccc(C(c4c[nH]c5ccc(Br)cc45)c4c[nH]c5ccc(Br)cc45)cc3)s2)c1 | jack bean urease (Canavalia ensiformis, UniProt P07374) | 19.8 |
| COc1ccc(Cl)cc1S(=O)(=O)Nc1nnc(-c2ccc(C(c3c[nH]c4ccc(Br)cc34)c3c[nH]c4ccc(Br)cc34)cc2)s1 | jack bean urease (Canavalia ensiformis, UniProt P07374) | 7.3 |

* * *

| structure smiles string | melting point |
| --- | --- |
| Cc1ccccc1S(=O)(=O)Nc1nnc(-c2ccc(C(c3c[nH]c4ccc(Br)cc34)c3c[nH]c4ccc(Br)cc34)cc2)s1 | 291 to 292 °C |
| COc1ccc(Cl)cc1S(=O)(=O)Nc1nnc(-c2ccc(C(c3c[nH]c4ccc(Br)cc34)c3c[nH]c4ccc(Br)cc34)cc2)s1 | 315 to 316 °C |
| Cc1ccc(Cl)c(S(=O)(=O)Nc2nnc(-c3ccc(C(c4c[nH]c5ccc(Br)cc45)c4c[nH]c5ccc(Br)cc45)cc3)s2)c1 | 301 to 302 °C |
| O=S(=O)(Nc1nnc(-c2ccc(C(c3c[nH]c4ccc(Br)cc34)c3c[nH]c4ccc(Br)cc34)cc2)s1)c1cc(Cl)c(Cl)cc1Cl | 299 to 300 °C |
| O=S(=O)(Nc1nnc(-c2ccc(C(c3c[nH]c4ccc(Br)cc34)c3c[nH]c4ccc(Br)cc34)cc2)s1)c1ccccc1 | 301 to 302 °C |
| O=[N+]([O-])c1ccccc1S(=O)(=O)Nc1nnc(-c2ccc(C(c3c[nH]c4ccc(Br)cc34)c3c[nH]c4ccc(Br)cc34)cc2)s1 | 314 to 315 °C |
| Cc1ccc([N+](=O)[O-])c(S(=O)(=O)Nc2nnc(-c3ccc(C(c4c[nH]c5ccc(Br)cc45)c4c[nH]c5ccc(Br)cc45)cc3)s2)c1 | 312 to 313 °C |
| O=[N+]([O-])c1ccc(S(=O)(=O)Nc2nnc(-c3ccc(C(c4c[nH]c5ccc(Br)cc45)c4c[nH]c5ccc(Br)cc45)cc3)s2)cc1Cl | 318 to 319 °C |
| COc1ccc(Br)c(S(=O)(=O)Nc2nnc(-c3ccc(C(c4c[nH]c5ccc(Br)cc45)c4c[nH]c5ccc(Br)cc45)cc3)s2)c1 | 309 to 310 °C |
| Cc1ccc(S(=O)(=O)Nc2nnc(-c3ccc(C(c4c[nH]c5ccc(Br)cc45)c4c[nH]c5ccc(Br)cc45)cc3)s2)cc1 | 285 to 286 °C |
| Cc1cccc(S(=O)(=O)Nc2nnc(-c3ccc(C(c4c[nH]c5ccc(Br)cc45)c4c[nH]c5ccc(Br)cc45)cc3)s2)c1 | 289 to 290 °C |
| COc1ccc([N+](=O)[O-])c(S(=O)(=O)Nc2nnc(-c3ccc(C(c4c[nH]c5ccc(Br)cc45)c4c[nH]c5ccc(Br)cc45)cc3)s2)c1 | 308 to 309 °C |

* * *

# reported melting point; entries follow

| structure smiles string | melting point |
| --- | --- |
| O=S(=O)(Nc1nnc(-c2ccc(C(c3c[nH]c4ccc(Br)cc34)c3c[nH]c4ccc(Br)cc34)cc2)s1)c1ccc(Cl)c(Cl)c1 | 302 to 303 °C |
| O=[N+]([O-])c1ccc(S(=O)(=O)Nc2nnc(-c3ccc(C(c4c[nH]c5ccc(Br)cc45)c4c[nH]c5ccc(Br)cc45)cc3)s2)cc1 | 312 to 313 °C |
| O=S(=O)(Nc1nnc(-c2ccc(C(c3c[nH]c4ccc(Br)cc34)c3c[nH]c4ccc(Br)cc34)cc2)s1)c1ccc2ccccc2c1 | 313 to 314 °C |
